A collection of compounds and their measured half-life at 1 μM
# test: Liver microsomal metabolic stability, human liver microsomes (HLM)
# conditions: human, liver microsomes
endpoint_name: half-life at 1 μM

compound: CC(C)n1ncc(Cl)c1-c1cc2n(n1)CC(C)(O)C(=O)N2Cc1ccc(-c2nc(C(F)(F)F)cn2C)cc1 (stereo not shown)
assay_value: > 25 min
--
compound: CCn1cc(C(F)(F)F)nc1-c1ccc([C@@H](C)N2C(=O)CCn3nc(-c4c(OC)ncnc4C4CC4)cc32)cc1F
assay_value: > 25 min
--
compound: Cc1cnn(C(C)C)c1-c1cc2n(n1)CCC(=O)N2Cc1ccc(-c2nc(C(F)(F)F)cn2C(C)C)cc1
assay_value: < 25 min
--
compound: CCn1cc(C(F)(F)F)nc1-c1ccc(N[C@H]2CCCn3nc(-c4c(Cl)cnn4C(C)C)cc32)cc1 (single isomer, unassigned)
assay_value: > 25 min
--
compound: COc1ncnc(C2CC2)c1-c1cc2n(n1)CCC(C)N2Cc1ccc(-c2nc(C(F)(F)F)cn2C)cc1 (racemic)
assay_value: < 25 min
--
compound: CCn1cc(C(F)(F)F)nc1-c1ccc(NC2CCCn3nc(-c4c(Cl)cnn4C(C)C)nc32)cc1F (stereo not shown)
assay_value: > 25 min
--
compound: COc1ncnc(C2CC2)c1-c1cc2n(n1)CCC(=O)N2Cc1ccc(-c2nc(C(F)(F)F)cn2C(C)C)cc1
assay_value: > 25 min
